Reference source: ChEMBL document CHEMBL1138066

# System: KB
# test: Cytotoxicity against human KB cell line by clonogenic plating efficiency assay after 72 hrs
# Type: functional, cell-based

# compound, IC50
data = [
    ("COc1cc2cc(c1Cl)N(C)C(=O)CC(OC(=O)[C@@H](C)N(C)C(=O)CCC(C)(C)SSC)C1(C)OC1C(C)C1CC(O)(NC(=O)O1)C(OC)/C=C/C=C(\\C)C2 (some centres undefined)", "> 0.3 nM"),
    ("COc1cc2cc(c1Cl)N(C)C(=O)CC(OC(=O)[C@@H](C)N(C)C(=O)CCS)C1(C)OC1C(C)C1CC(O)(NC(=O)O1)C(OC)/C=C/C=C(\\C)C2 (some centres undefined)", "> 3 nM"),
    ("COc1cc2cc(c1Cl)N(C)C(=O)CC(O)C1(C)OC1C(C)C1CC(O)(NC(=O)O1)C(OC)/C=C/C=C(\\C)C2 (centres undefined)", "> 3 nM"),
    ("COc1cc2cc(c1Cl)N(C)C(=O)CC(OC(=O)[C@@H](C)N(C)C(=O)CC[C@H](C)SSC)C1(C)OC1C(C)C1CC(O)(NC(=O)O1)C(OC)/C=C/C=C(\\C)C2 (some centres undefined)", "> 3 nM"),
]
